system under test: Fn14-TWEAK binding (Homo sapiens, UniProt Q9NP84)
Construct: the human Fc fragment-tagged Fn14 extracellular domain (R&D Systems) was captured; purchased R&D Systems (Fn14-Fc); Peprotech (recombinant TWEAK)
Sequence (Q9NP84 28-80 limits assumed): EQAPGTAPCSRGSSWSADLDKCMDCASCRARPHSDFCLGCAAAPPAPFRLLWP
test protocol: Double sandwich ELISA small molecule screening of TWEAK binding to captured Fn14-Fc
run parameters: Table 3, first round of screening, 25 μM, average of duplicate; read-out: % Reduction in TWEAK Binding, Average
Procedure: Double Sandwich ELISA. sTWEAK and sTWEAK variant proteins were synthesized as described above. The expression level of each IVTT synthesized sTWEAK protein was analyzed by western blot analysis and used in approximately equal amounts in the ELISA. […] Following incubation for additional 2 hr at room temperature, wells were washed 3× with DPBS containing 0.05% Tween-20 and bound biotinylated TWEAK antibody was detected by incubation with an HRP-conjugated streptavidin. […]
endpoint name: inhibition at 25 µM (%)

INSERT INTO measurements (compound, units_symbol, reported_result) VALUES
  ('CCC(=O)Nc1ccccc1-c1nnc(SC(CC)C(=O)Nc2cccc(OC)c2)[nH]c1=O (stereo not shown) [Compound F151-0392]', '%', 11.6),
  ('COC(=O)[C@H]1Cc2c([nH]c3ccccc23)CN1 [Compound D715-0140]', '%', 11.7),
  ('CCC(=O)Nc1ccccc1-c1nnc(SCC(=O)Nc2ccc(OC)cc2)[nH]c1=O [Compound F151-0485]', '%', 10.3),
  ('O=C(NCc1ccccc1Cl)C(=O)NCc1n[nH]c(=O)c2ccccc12 [Compound F044-0076]', '%', 10.9);

----------
system under test: Fn14-TWEAK binding (Homo sapiens, UniProt Q9NP84)
Construct: the human Fc fragment-tagged Fn14 extracellular domain (R&D Systems) was captured; purchased R&D Systems (Fn14-Fc); Peprotech (recombinant TWEAK)
test protocol: Double sandwich ELISA small molecule screening of TWEAK binding to captured Fn14-Fc
run parameters: Table 5, 25 μM, average of duplicate; read-out: % Reduction in TWEAK Binding, Average
Experimental: Double Sandwich ELISA. sTWEAK and sTWEAK variant proteins were synthesized as described above. The expression level of each IVTT synthesized sTWEAK protein was analyzed by western blot analysis and used in approximately equal amounts in the ELISA. […] Following incubation for additional 2 hr at room temperature, wells were washed 3× with DPBS containing 0.05% Tween-20 and bound biotinylated TWEAK antibody was detected by incubation with an HRP-conjugated streptavidin. […]
endpoint name: inhibition at 25 µM (%)

INSERT INTO measurements (compound, system_under_test, reported_result) VALUES
  ('CCC(=O)Nc1ccccc1-c1nnc(SC(CC)C(=O)Nc2cc(OC)cc(OC)c2)[nH]c1=O (stereo not shown)', 'Fn14-TWEAK binding (Homo sapiens, UniProt Q9NP84)', 15.5);

1: O=C(NCc1n[nH]c(=O)c2ccccc12)C(=O)N1CCCCCC1
2: Cc1cc(C)n(CC(=O)NCCc2c[nH]c3ccccc23)n1
Endpoint returns whichever of 1 and 2 has the numerically higher inhibition at 25 µM. Please indicate the selected item by its label.
1

a: O=C(NCc1ccc(F)cc1)C1CCCN(c2nc3c(-c4ccccc4)csc3c(=O)[nH]2)C1 (stereo not shown)
b: NC(=O)C1CCCN(c2nc3c(-c4ccccc4)csc3c(=O)[nH]2)C1 (stereo not shown)
Endpoint returns whichever of a and b has the numerically higher inhibition at 25 µM. Please indicate the selected item by its label.
a
(a: 22%, b: 11.8%)

Source listed as patent US9238034B2.
